tested on: rice seedlings edited at the OsPPO2 L422M/F442M site and wild-type strain; experiment: Tolerance of gene-edited homozygous OsPPO2 L422M/F442M rice seedlings (4-leaf stage)
value kind: crop safety when other PPO inhibiting herbicides were applied

molecule="CCOc1cc(Oc2ccc(C(F)(F)F)cc2Cl)ccc1[N+](=O)[O-] [oxyfluorfen]" readout_value="excellent crop safety"
molecule="COC(=O)CCNC(=O)C(C)Sc1cc(-n2c(=O)cc(C(F)(F)F)n(C)c2=O)c(F)cc1Cl (stereo not drawn) [tiafenacil]" readout_value="excellent crop safety"
molecule="Cc1nn(-c2cc(NS(C)(=O)=O)c(Cl)cc2Cl)c(=O)n1C(F)F [sulfentrazone]" readout_value="excellent crop safety"

Data provenance: patent US20250230462A1
